# Experiment summary: qHTS assay to identify small molecule antagonists of the farnesoid-X-receptor (FXR) signaling pathway - cell viability counter screen (AID 743221); further: nearly all actives have a fitted effect of over 50% in size
# Settings: FXR-bla HEK293T viability, CellTiter-Glo luminescence, 16 h; series mostly up to 62.6 µM
Records with an inconclusive call do not appear. Calls of active or inactive are those of the source. The call rests on the fitted dose curve; in most records, active means well fitted cell-killing curve with a large enough effect in the repeat runs (not every such curve was filed as active); inconclusive means weak or mixed curves, or effect the other way; inactive means no such curve, though single readings can be large or run the other way.
Outcome codes: 1 = active, -1 = inactive

INSERT INTO assay_data (compound, group_label) VALUES
  ('CCN(CC)C(=O)N1CCN(C)CC1', -1),
  ('CCCCOC(=O)CCCCC(=O)OCCCC', -1),
  ('CO[C@@H]1[C@@H](OC)[C@H](C)[C@@](O)(CC(=O)O)O[C@H]1[C@H](C)[C@H]1O[C@@]2(CC[C@@](C)([C@H]3CC[C@@](C)([C@@H]4O[C@@H]([C@H]5O[C@](C)(O)[C@H](C)C[C@@H]5C)C[C@@H]4OC4C[C@H](OC)[C@@H](OC)[C@H](C)O4)O3)O2)C[C@H](O)[C@H]1C (some centres undefined)', 1),
  ('O=C1OC(=O)c2c(Br)c(Br)c(Br)c(Br)c21', -1),
  ('CCOC(=O)c1ccc(NC(=O)CN2CCCCC2)cc1', -1),
  ('O=S(=O)(O)CO', -1),
  ('CCN(CC)CCNC(=O)c1cc(Cl)c(N)cc1OC', -1),
  ('CCCCCCC(CO)CCCC (centres undefined)', -1),
  ('CNc1c2c(nn1C)CCCC2', -1),
  ('CCCCCCCCCCCCCOC(=O)CCSCCC(=O)OCCCCCCCCCCCCC', -1),
  ('CCCCCCCCCCCCCCCCCC(=O)OCC(CC)CCCC (centres undefined)', -1),
  ('C=Cc1ccc(OC(C)=O)cc1', -1),
  ('CCC(C)(C)C(=O)O', -1),
  ('COC1CCC=CO1 (centres undefined)', -1),
  ('COC(=O)CC(C(C)=O)C(=O)OC (centres undefined)', -1),
  ('COc1cc(NS(=O)(=O)c2ccc(N)cc2)nc(C)n1', -1),
  ('O=C(C(=O)c1ccco1)c1ccco1', -1),
  ('Cc1cc(CCC(=O)OCCOCCOCCOC(=O)CCc2cc(C)c(O)c(C(C)(C)C)c2)cc(C(C)(C)C)c1O', -1),
  ('O=C(O)CCCc1c[nH]c2ccccc12', -1),
  ('CC(C)(O)CCc1ccccc1', -1),
  ('CC/C=C\C/C=C\C/C=C\CCCCCCCC(=O)OCC', -1),
  ('CCCCCCOC(=O)CCCCC', -1),
  ('Nc1nc(-c2ccc([N+](=O)[O-])cc2)cs1', -1),
  ('C=CCOC(=O)COCCC(C)C', -1),
  ('CCCCOCCOC(=O)c1cccnc1', -1),
  ('CC(=O)C(=O)CC(C)C', -1),
  ('CCOCCC(=O)OCC', -1),
  ('CN1C(CSCC(F)(F)F)Nc2cc(Cl)c(S(N)(=O)=O)cc2S1(=O)=O (centres undefined)', -1),
  ('COC(=O)Nc1nc2ccc(C(=O)C3CC3)cc2[nH]1', -1),
  ('Cc1ccc(N(CCO)CCO)cc1', -1),
  ('CC(C)COC(=O)c1ccc(O)cc1', -1),
  ('COc1ccc(N)c([N+](=O)[O-])c1', -1),
  ('CC(C)(C)CCCCCCOC(=O)c1ccccc1C(=O)OCCCCCCC(C)(C)C', -1),
  ('CC1CCC(C(C)CS)CC1S (centres undefined)', -1),
  ('C=C(C)C(=O)OCCC(F)(F)C(F)(F)C(F)(F)C(F)(F)C(F)(F)C(F)(F)F', -1),
  ('Cc1cc(CCCOc2c(C)cc(-c3noc(C(F)(F)F)n3)cc2C)on1', -1),
  ('Cc1ccc(NC(=O)N(C)C)cc1NC(=O)N(C)C', -1),
  ('O=[N+]([O-])c1ccc2ncccc2c1', -1),
  ('CC1CCCC(=O)C1=O (centres undefined)', -1),
  ('CCOC(=O)C(C)O (centres undefined)', -1),
  ('Cc1oc(=O)oc1COC(=O)[C@@H]1N2C(=O)[C@@H](NC(=O)[C@H](N)c3ccccc3)[C@H]2SC1(C)C', -1),
  ('O=C(O)CN1C(=O)c2cccc3cccc(c23)C1=O', -1),
  ('O=C1CC[C@@H](C(=O)O)N1', -1),
  ('CCCCCCCC/C=C/C(=O)O', -1),
  ('COC(C)(C)OC', -1),
  ('COc1ccc(-c2cc(C(F)F)nn2-c2ccc(S(N)(=O)=O)cc2)cc1F', -1),
  ('Cc1ccc2nc(N)[nH]c(=O)c2c1Sc1ccncc1', -1),
  ('CCOc1ncc(F)c(=O)[nH]1', -1),
  ('COc1ccc2nc(S(=O)Cc3ncc(C)c(OC)c3C)[nH]c2c1 (centres undefined)', -1),
  ('O=C(O)CCS', -1),
  ('COC(OC)OC', -1),
  ('C1=CCC2CC=CC2C1 (centres undefined)', -1),
  ('CCCCCCCCCCCCCC(=O)OCC(O)CO (centres undefined)', -1),
  ('O=C(O)CNC(=O)c1ccccc1I', -1);
